Tested on: A498 complex spheroid viability
Assay: Anticancer human tumor A498 cell line growth inhibition; active = viability on the fitted dose curve at most 10% of control; inactive = the rest;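 note: spheroids exposed to agents for seven days before readout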
Settings: second compound 1 µM; first compound 0.01 µM
Labels: t for active, f for inactive

O=C(C=Cn1cnc(-c2cc(C(F)(F)F)cc(C(F)(F)F)c2)n1)NNc1cnccn1 + NC1CCC(NC2CC2c2ccccc2)CC1: f
Nc1ncn(C2CC(O)C(CO)O2)c(=O)n1 (configuration not stated) + NC1CC1c1ccc(-c2cccc(O)c2)cc1: f
CC1COCCN1c1cc(-c2ccnn2C)c2ccnc(-c3ccn[nH]3)c2n1 (configuration not stated) + NC1CCC(NC2CC2c2ccccc2)CC1: f
CC1COCCN1c1cc(-c2ccnn2C)c2ccnc(-c3ccn[nH]3)c2n1 (configuration not stated) + NC1CC1c1ccc(-c2cccc(O)c2)cc1: f
CC(C)CC(NC(=O)C(Cc1ccccc1)NC(=O)c1cnccn1)B(O)O (configuration not stated) + NC1CCC(NC2CC2c2ccccc2)CC1: t
O=C(C=Cn1cnc(-c2cc(C(F)(F)F)cc(C(F)(F)F)c2)n1)NNc1cnccn1 + NC1CC1c1ccc(-c2cccc(O)c2)cc1: f
CC(C)CC(NC(=O)CNC(=O)c1cc(Cl)ccc1Cl)B1OC(=O)CC(CC(=O)O)(C(=O)O)O1 (configuration not stated) + NC1CC1c1ccc(-c2cccc(O)c2)cc1: f
